src = ChEMBL document CHEMBL3352151

assayDetails: Toxicity in albino mouse assessed as mortality at 120 mg/kg, iv
Type: organism-based
Set-up: dose 120 mg/kg, route intravenous
conditionSummary: in vivo
reportedProperty: mortality

Entry under review: CCCCCCCCCCCCCC(=O)NC(CCCN)C(=O)NC(CCCN)C(=O)NC(CCCN)C(N)=O (stereo unspecified) . Reported mortality?
75%

====

assayDetails: Toxicity in albino mouse assessed as mortality at 15 mg/kg, iv
Assay type: organism-based
Set-up: dose 15 mg/kg, route intravenous
conditionSummary: in vivo
reportedProperty: mortality (%)
Respond with the bare value in %.

Entry under review: CCCCCCCCCCCCCC(=O)NC(CCCN)C(=O)NC(CCCN)C(=O)NC(CCCN)C(N)=O (stereo unspecified) . Reported mortality?
0

====

System: Haemophilus influenzae
assayDetails: Antibacterial activity against clinical isolates of ciprofloxacin-resistant Haemophilus influenzae PGI/DML01744 after overnight incubation by microdilution broth assay
Type: functional
Square brackets hold non-standard residues; d marks the D form. Peptide text beside a SMILES is read from it. * marks the point of attachment. Stearoyl = CCCCCCCCCCCCCCCCCC(=O)*; Palmitoyl = CCCCCCCCCCCCCCCC(=O)*; Myristoyl = CCCCCCCCCCCCCC(=O)*; Orn = NCCC[CH](N)C(=O)O
reportedProperty: MIC (µg/mL)
Respond with the bare value in µg/mL.

Entry under review: CCCCCCCCCCCCCCCCCC(=O)NC(CCCN)C(=O)NC(CCCN)C(=O)NC(CCCN)C(N)=O (centres undefined) . Reported MIC?
7.5

Subsequent entry: CCCCCCCCCCCCCCCC(=O)NC(CCCN)C(=O)NC(CCCN)C(=O)NC(CCCN)C(=O)NC(CCCN)C(=O)NC(CCCN)C(N)=O (centres undefined) (Palmitoyl-[Orn][Orn][Orn][Orn][Orn]-NH2; configuration not given here)
12.5

Subsequent entry: CCCCCCCCCCCCCC(=O)NC(CCCN)C(=O)NC(CCCN)C(=O)NC(CCCN)C(N)=O (centres undefined)
3.1

Subsequent entry: CCCCCCCCCCCCCC(=O)NC(CCCN)C(=O)NC(CCCN)C(=O)NC(CCCN)C(=O)NC(CCCN)C(=O)NC(CCCN)C(N)=O (centres undefined) (Myristoyl-[Orn][Orn][Orn][Orn][Orn]-NH2; configuration not given here)
15.5

Subsequent entry: CCCCCCCCCCCCCC(=O)NC(CCCN)C(=O)NC(CCCN)C(=O)NC(CCCN)C(=O)NC(CCCN)C(N)=O (centres undefined) (Myristoyl-[Orn][Orn][Orn][Orn]-NH2; configuration not given here)
10

Subsequent entry: CCCCCCCCCCCCCCCCCC(=O)NC(CCCN)C(=O)NC(CCCN)C(=O)NC(CCCN)C(=O)NC(CCCN)C(N)=O (centres undefined) (Stearoyl-[Orn][Orn][Orn][Orn]-NH2; configuration not given here)
12.5

Subsequent entry: CCCCCCCCCCCCCCCCCC(=O)NC(CCCN)C(=O)NC(CCCN)C(=O)NC(CCCN)C(=O)NC(CCCN)C(=O)NC(CCCN)C(N)=O (centres undefined) (Stearoyl-[Orn][Orn][Orn][Orn][Orn]-NH2; configuration not given here)
15

Subsequent entry: CCCCCCCCCCCCCCCC(=O)NC(CCCN)C(=O)NC(CCCN)C(=O)NC(CCCN)C(=O)NC(CCCN)C(N)=O (centres undefined) (Palmitoyl-[Orn][Orn][Orn][Orn]-NH2; configuration not given here)
12.5

Subsequent entry: CCCCCCCCCCCCCCCC(=O)NC(CCCN)C(=O)NC(CCCN)C(=O)NC(CCCN)C(N)=O (centres undefined)
5.5
